compounds and their reported viability, T/C
# Test system: 677734-321-R-J1-PDC complex spheroid viability
# assay remarks: Anticancer human tumor 677734-321-R-J1-PDC patient-derived soft tissue sarcoma cell line growth inhibition [POLQ]
# assay context: second compound 0.0316 µM; first compound 0.316 µM; hits give low values
The figure you give is taken to be in %; do not add the unit.

Study these solved cases before continuing.
# compound, unit label, viability, T/C
rows = [
    ("C=CCn1c(=O)c2cnc(Nc3ccc(N4CCN(C)CC4)cc3)nc2n1-c1cccc(C(C)(C)O)n1 + Cc1cccc(N(C)C(=O)C2C(O)CCN2c2nc(C)cc(C(F)(F)F)c2C#N)c1", "%", 81),
    ("C=CC(=O)N1CCN(c2nc(=O)n(-c3c(C)ccnc3C(C)C)c3nc(-c4c(O)cccc4F)c(F)cc23)C(C)C1 (stereo not given) + Nc1ccc(C#CCN(C(=O)Cc2ncc(C(F)(F)F)cc2C(F)(F)F)c2ccc(F)cc2)nn1", "%", 101),
    ("O=C(Nc1ccc(O)c(NS(=O)(=O)c2ccc(F)cc2)c1)c1ccc(-c2ccccc2)cc1 + Cc1cccc(N(C)C(=O)C2C(O)CCN2c2nc(C)cc(C(F)(F)F)c2C#N)c1", "%", 97.1),
    ("CCc1cc2c(N3CCc4c(cc(Cn5ccnc5)cc4-c4cn(C)nc4C(F)(F)F)C3=O)ccnc2c(OC)n1 + Cc1cccc(N(C)C(=O)C2C(O)CCN2c2nc(C)cc(C(F)(F)F)c2C#N)c1", "%", 86.5),
]

Now examine the next entry.
Input line: Read off the recorded viability, T/C for C#Cc1c(F)ccc2cc(O)cc(-c3ncc4c(N5CC6CCC(C5)N6)nc(OCC56CCCN5CC(F)C6)nc4c3F)c12 (stereo not given) + Cc1cccc(N(C)C(=O)C2C(O)CCN2c2nc(C)cc(C(F)(F)F)c2C#N)c1
Output line: 108

---

# System: 677734-321-R-J1-PDC complex spheroid viability
# assay remarks: Anticancer human tumor 677734-321-R-J1-PDC cell line growth inhibition [POLQ];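 further: spheroids exposed to compounds for one week; 100% = vehicle DMSO treated spheroids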
# assay context: second compound 0.316 µM; first compound 0.0316 µM; hits give low values
endpoint: viability, T/C (%)
The figure you give is taken to be in %; do not add the unit.

Study these solved cases before continuing.
# compound, system name, unit label, viability, T/C
measured = [
    ("CC1COCCN1c1cc(-c2ccnn2C)c2ccnc(-c3ccn[nH]3)c2n1 (stereo unspecified) + Cc1cccc(N(C)C(=O)C2C(O)CCN2c2nc(C)cc(C(F)(F)F)c2C#N)c1", "677734-321-R-J1-PDC complex spheroid viability", "%", 98.1),
    ("CC1COCCN1c1cc(C2(S(C)(=N)=O)CC2)nc(-c2ccnc3[nH]ccc23)n1 (stereo unspecified) + Nc1ccc(C#CCN(C(=O)Cc2ncc(C(F)(F)F)cc2C(F)(F)F)c2ccc(F)cc2)nn1", "677734-321-R-J1-PDC complex spheroid viability", "%", 109),
    ("CC(C)n1c(=O)n(C)c2cnc3cc(F)c(-c4ccc(OCCCN5CCCCC5)nc4)cc3c21 + COC1C(OC(N)=O)C(O)C(Oc2ccc3c(O)c(NC(=O)c4ccc(O)c(CC=C(C)C)c4)c(=O)oc3c2C)OC1(C)C", "677734-321-R-J1-PDC complex spheroid viability", "%", 108),
    ("O=c1[nH]cc(F)c(=O)[nH]1 + Cc1cccc(N(C)C(=O)C2C(O)CCN2c2nc(C)cc(C(F)(F)F)c2C#N)c1", "677734-321-R-J1-PDC complex spheroid viability", "%", 112),
    ("COc1ccc([C@@H](O)c2cc(-c3ncnc4cc(N5CCOCC5)ccc34)c(F)cc2Cl)nn1 + Cc1cccc(N(C)C(=O)C2C(O)CCN2c2nc(C)cc(C(F)(F)F)c2C#N)c1", "677734-321-R-J1-PDC complex spheroid viability", "%", 105),
]

Input line: Read off the recorded viability, T/C for CC[C@@]1(O)C(=O)OCc2c1cc1n(c2=O)Cc2cc3c(CN(C)C)c(O)ccc3nc2-1 + Cc1cccc(N(C)C(=O)C2C(O)CCN2c2nc(C)cc(C(F)(F)F)c2C#N)c1
Output line: 34.1

---

# Tested on: 677734-321-R-J1-PDC complex spheroid viability
# assay remarks: Anticancer human tumor 677734-321-R-J1-PDC cell line growth inhibition [POLQ];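 further: spheroids exposed to compounds for one week; 100% = vehicle DMSO treated spheroids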
# assay context: second compound 0.0316 µM; first compound 0.0316 µM; hits give low values
molecules and their reported viability, T/C
The figure you give is taken to be in %; do not add the unit.

Study these solved cases before continuing.
# molecule, recorded value
records = [
    ("CNCc1ccc(-c2[nH]c3cc(F)cc4c3c2CCNC4=O)cc1 + COC1C(OC(N)=O)C(O)C(Oc2ccc3c(O)c(NC(=O)c4ccc(O)c(CC=C(C)C)c4)c(=O)oc3c2C)OC1(C)C", 101),
    ("C=CCn1c(=O)c2cnc(Nc3ccc(N4CCN(C)CC4)cc3)nc2n1-c1cccc(C(C)(C)O)n1 + Cc1cccc(N(C)C(=O)C2C(O)CCN2c2nc(C)cc(C(F)(F)F)c2C#N)c1", 102),
    ("CCc1cc2c(N3CCc4c(cc(Cn5ccnc5)cc4-c4cn(C)nc4C(F)(F)F)C3=O)ccnc2c(OC)n1 + Nc1ccc(C#CCN(C(=O)Cc2ncc(C(F)(F)F)cc2C(F)(F)F)c2ccc(F)cc2)nn1", 89.5),
    ("O=C(c1cc(Cc2n[nH]c(=O)c3ccccc23)ccc1F)N1CCN(C(=O)C2CC2)CC1 + Cc1cccc(N(C)C(=O)C2C(O)CCN2c2nc(C)cc(C(F)(F)F)c2C#N)c1", 108),
    ("CC[C@@]1(O)C(=O)OCc2c1cc1n(c2=O)Cc2cc3c(CN(C)C)c(O)ccc3nc2-1 + Cc1cccc(N(C)C(=O)C2C(O)CCN2c2nc(C)cc(C(F)(F)F)c2C#N)c1", 39.4),
]

Input line: Read off the recorded viability, T/C for Nc1ccn(C2OC(CO)C(O)C2(F)F)c(=O)n1 (stereo unspecified) + Nc1ccc(C#CCN(C(=O)Cc2ncc(C(F)(F)F)cc2C(F)(F)F)c2ccc(F)cc2)nn1
Output line: 15.4

Input line: Read off the recorded viability, T/C for CCc1cc2c(N3CCc4c(cc(Cn5ccnc5)cc4-c4cn(C)nc4C(F)(F)F)C3=O)ccnc2c(OC)n1 + Cc1cccc(N(C)C(=O)C2C(O)CCN2c2nc(C)cc(C(F)(F)F)c2C#N)c1
Output line: 104

Input line: Read off the recorded viability, T/C for Cn1ncnc1[C@H]1c2n[nH]c(=O)c3cc(F)cc(c23)N[C@@H]1c1ccc(F)cc1 + Nc1ccc(C#CCN(C(=O)Cc2ncc(C(F)(F)F)cc2C(F)(F)F)c2ccc(F)cc2)nn1
Output line: 99.6

Input line: Read off the recorded viability, T/C for O=c1[nH]cc(F)c(=O)[nH]1 + COC1C(OC(N)=O)C(O)C(Oc2ccc3c(O)c(NC(=O)c4ccc(O)c(CC=C(C)C)c4)c(=O)oc3c2C)OC1(C)C
Output line: 113

---

molecules and their reported viability, T/C
# Test system: 677734-321-R-J1-PDC complex spheroid viability
# assay remarks: Anticancer human tumor 677734-321-R-J1-PDC cell line growth inhibition [POLQ];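 further: spheroids exposed to compounds for one week; 100% = vehicle DMSO treated spheroids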
# assay context: second compound 0.0316 µM; first compound 0.00316 µM; hits give low values

Study these solved cases before continuing.
# molecule, viability, T/C
rows = [
    ("Cn1ncnc1[C@H]1c2n[nH]c(=O)c3cc(F)cc(c23)N[C@@H]1c1ccc(F)cc1 + Cc1cccc(N(C)C(=O)C2C(O)CCN2c2nc(C)cc(C(F)(F)F)c2C#N)c1", "100%"),
    ("Cn1ncnc1[C@H]1c2n[nH]c(=O)c3cc(F)cc(c23)N[C@@H]1c1ccc(F)cc1 + Nc1ccc(C#CCN(C(=O)Cc2ncc(C(F)(F)F)cc2C(F)(F)F)c2ccc(F)cc2)nn1", "86.2%"),
    ("CCc1c2c(nc3ccc(O)cc13)-c1cc3c(c(=O)n1C2)COC(=O)[C@]3(O)CC + Nc1ccc(C#CCN(C(=O)Cc2ncc(C(F)(F)F)cc2C(F)(F)F)c2ccc(F)cc2)nn1", "22.2%"),
    ("C=CCn1c(=O)c2cnc(Nc3ccc(N4CCN(C)CC4)cc3)nc2n1-c1cccc(C(C)(C)O)n1 + Cc1cccc(N(C)C(=O)C2C(O)CCN2c2nc(C)cc(C(F)(F)F)c2C#N)c1", "102%"),
]

Now examine the next entry.
Input line: Read off the recorded viability, T/C for CC[C@@]1(O)C(=O)OCc2c1cc1n(c2=O)Cc2cc3c(CN(C)C)c(O)ccc3nc2-1 + Cc1cccc(N(C)C(=O)C2C(O)CCN2c2nc(C)cc(C(F)(F)F)c2C#N)c1
Output line: 102%

---

# System: 677734-321-R-J1-PDC complex spheroid viability
# assay remarks: Anticancer human tumor 677734-321-R-J1-PDC cell line growth inhibition [POLQ];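 further: spheroids exposed to compounds for one week; 100% = vehicle DMSO treated spheroids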
# assay context: second compound 0.0316 µM; first compound 0.0316 µM; hits give low values
endpoint: viability, T/C (%)
The figure you give is taken to be in %; do not add the unit.

Study these solved cases before continuing.
# molecule, endpoint, recorded value
data = [
    ("O=c1[nH]cc(F)c(=O)[nH]1 + Nc1ccc(C#CCN(C(=O)Cc2ncc(C(F)(F)F)cc2C(F)(F)F)c2ccc(F)cc2)nn1", "viability, T/C", 101),
    ("CCc1cc2c(N3CCc4c(cc(Cn5ccnc5)cc4-c4cn(C)nc4C(F)(F)F)C3=O)cc(C)nc2c(OC)n1 + Nc1ccc(C#CCN(C(=O)Cc2ncc(C(F)(F)F)cc2C(F)(F)F)c2ccc(F)cc2)nn1", "viability, T/C", 100),
    ("C=CC(=O)N1CCN(c2nc(=O)n(-c3c(C)ccnc3C(C)C)c3nc(-c4c(O)cccc4F)c(F)cc23)C(C)C1 (stereo not given) + Cc1cccc(N(C)C(=O)C2C(O)CCN2c2nc(C)cc(C(F)(F)F)c2C#N)c1", "viability, T/C", 108),
    ("COc1cc(C2c3cc4c(cc3C(OC3OC5COC(C)OC5C(O)C3O)C3COC(=O)C23)OCO4)cc(OC)c1O (stereo not given) + Cc1cccc(N(C)C(=O)C2C(O)CCN2c2nc(C)cc(C(F)(F)F)c2C#N)c1", "viability, T/C", 99.4),
]

Now examine the next entry.
Input line: Read off the recorded viability, T/C for COc1cccc2c1C(=O)c1c(O)c3c(c(O)c1C2=O)CC(O)(C(=O)CO)CC3OC1CC(N)C(O)C(C)O1 (stereo not given) + COC1C(OC(N)=O)C(O)C(Oc2ccc3c(O)c(NC(=O)c4ccc(O)c(CC=C(C)C)c4)c(=O)oc3c2C)OC1(C)C
Output line: 84.4
